Values from PubChem BioAssay

ASSAY TARGET: Potassium voltage-gated channel subfamily KQT member 2 (Rattus norvegicus) (UniProt O88943)
Sequence (O88943 whole entry, looked up): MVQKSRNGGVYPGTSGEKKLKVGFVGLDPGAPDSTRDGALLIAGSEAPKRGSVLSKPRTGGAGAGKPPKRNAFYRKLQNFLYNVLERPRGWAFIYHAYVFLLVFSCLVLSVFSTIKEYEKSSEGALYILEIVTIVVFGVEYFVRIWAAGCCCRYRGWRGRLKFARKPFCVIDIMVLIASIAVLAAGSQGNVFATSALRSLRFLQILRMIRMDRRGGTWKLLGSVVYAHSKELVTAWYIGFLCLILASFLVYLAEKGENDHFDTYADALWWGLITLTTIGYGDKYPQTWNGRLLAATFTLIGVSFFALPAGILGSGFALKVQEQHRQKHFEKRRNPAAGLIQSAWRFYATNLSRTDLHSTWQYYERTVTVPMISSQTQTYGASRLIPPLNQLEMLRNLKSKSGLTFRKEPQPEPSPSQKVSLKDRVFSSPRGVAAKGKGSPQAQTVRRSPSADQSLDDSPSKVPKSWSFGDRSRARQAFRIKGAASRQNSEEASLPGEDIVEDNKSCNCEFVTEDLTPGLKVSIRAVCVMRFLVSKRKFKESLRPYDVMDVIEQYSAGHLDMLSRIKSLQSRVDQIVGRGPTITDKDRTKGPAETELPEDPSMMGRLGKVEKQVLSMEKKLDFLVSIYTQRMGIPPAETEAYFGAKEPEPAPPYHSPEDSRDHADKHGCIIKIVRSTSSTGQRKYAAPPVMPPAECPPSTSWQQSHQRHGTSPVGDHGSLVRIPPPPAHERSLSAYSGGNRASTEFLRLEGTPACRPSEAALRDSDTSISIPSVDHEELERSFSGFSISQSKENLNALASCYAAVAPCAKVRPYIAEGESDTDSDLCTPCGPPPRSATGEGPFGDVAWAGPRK
METHOD SUMMARY: KCNQ2 potassium channel activity enhancers – cell-based, CHO, FluxOR thallium flux, duplicate, confirmation (AID 2287);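 note: peak minus minimum thallium fluorescence divided by baseline after K/Tl stimulus; 0% = vehicle mean plus 3 SD and 100% = vehicle minus unstimulated blank difference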
MEASUREMENT SETUP: CHO-KCNQ2 cells, FluxOR thallium flux fluorescence; at 10 µM; hits give high values
The list shows a part of the results.
This listing pairs molecules with measured potentiation, less the hit threshold.
Just the number please, in %, no unit attached.

// below: answered molecules
GIVEN SMILES: Cc1ccc(CS(=O)(=O)c2ncc(Cl)c(C(=O)Nc3nnc(C)s3)n2)cc1
EXPERIMENTAL VALUE: -85.4
//
GIVEN SMILES: CS(=O)(=O)c1sc(C(=O)NC(=S)Nc2ccc(OC(F)(F)F)cc2)c2c1C=CCC2
EXPERIMENTAL VALUE: -3.3
//
GIVEN SMILES: CSc1nnc(NC(=O)c2nc(S(=O)(=O)Cc3ccc(C)cc3)ncc2Cl)s1
EXPERIMENTAL VALUE: 67.6
//
GIVEN SMILES: Oc1c(Cl)cc(Cl)c(Cl)c1Cc1c(O)c(Cl)cc(Cl)c1Cl
EXPERIMENTAL VALUE: 112

With those in mind, consider the next molecule.
Problem: // potentiation, less the hit threshold lookup, key: Fc1cc(F)c2nc(Nc3nc4c(F)cccc4s3)sc2c1
Result: 20.5
